Tested on: SF-268 CNS
Measurement Notes: NCI-60 one-dose screen, 48 h
Measurement Conditions: 10 µM
About 83,000 compounds went through this panel and 20% of them were active in at least one assay; those are over-represented in the sample as a whole. Active and inactive are the calls of the source. The calls were made as follows: active = growth percent below 10; inactive = the rest.
Return exactly one item of TRUE for active, FALSE for inactive

Observe how each entry below is paired with its result.
COc1cc(-c2nc(Nc3nc4ccccc4s3)[nH]c(=O)c2C#N)cc(OC)c1O ... FALSE
O=C(N/N=C/c1ccccc1O)C(O)(c1ccccc1)c1ccccc1 ... FALSE
CC(C)=NNc1ncnc2c1ncn2C1OC(CO)C(O)C1O (configuration not stated) ... FALSE

q: Each compound tested received a call. Report the one for O=C(CC(c1ccccc1)N1CCOCC1)c1ccccc1 (configuration not stated) .
a: FALSE

q: What about Cc1cccc(C)c1NC(=O)c1sc2nc3c(cc2c1N)C(=O)CCC3 ?
a: FALSE

q: Also check O=C(/C(=C/c1ccccc1)CN1CCCCC1)c1ccccc1
a: TRUE

q: Also check N=c1c2c(-c3ccccc3)c(-c3ccccc3)n(Cc3ccccc3)c2ncn1CCCO
a: FALSE
